B1: DYRK1B (parent)
chain: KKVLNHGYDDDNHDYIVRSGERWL

Variants of: B1
PROTOCOL_TEXT: protein stability index of a GFP-peptide fusion (GPS, HEK-293T) (PSI 1-6); higher = more stable;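 also: lentivirally expressed fusions sorted by FACS into six bins by GFP to DsRed ratio, PSI derived from sequencing read proportions per bin multiplied by bin number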
CONDITION_LABEL: c terminus: a fixed tail appended
Please enter YES where protein stability index is greater than or equal to 3, and NO where it is lower.

Check out these entries, answers already filled in.
Please check the record D10N and state if its protein stability index is at or above 3.
NO

Please check the record R22C and state if its protein stability index is at or above 3.
NO

Please check the record S19P and state if its protein stability index is at or above 3.
NO

Please check the record L24E and state if its protein stability index is at or above 3.
YES

Please check the record W23L and state if its protein stability index is at or above 3.
YES

Please check the record Y15K and state if its protein stability index is at or above 3.
YES

Please check the record L24Q and state if its protein stability index is at or above 3.
YES

Please check the record W23I and state if its protein stability index is at or above 3.
YES

New cases:
Please check the record G7K and state if its protein stability index is at or above 3.
YES

Please check the record H6T and state if its protein stability index is at or above 3.
YES

Please check the record K1I and state if its protein stability index is at or above 3.
NO

Please check the record R18H and state if its protein stability index is at or above 3.
YES

Please check the record K1V and state if its protein stability index is at or above 3.
NO

Please check the record H13K and state if its protein stability index is at or above 3.
YES

Please check the record W23G and state if its protein stability index is at or above 3.
YES

Please check the record D9I and state if its protein stability index is at or above 3.
NO
